# assay_summary: APR_HepG2_NuclearSize_72hr: Apredica 72-hour HepG2 Assay for Nuclear Size (AID 2282925)
# measurement_context: high-content imaging, actives raise or lower the signal
Activity calls are given as the source filed them. How the source made its calls: active means hit-call score of the fitted dose curve at least 0.9, where 1 is the maximum; inactive means score below 0.9.
observed_property: outcome

[[record]]
compound = "Clc1ccc(C(c2ccccc2Cl)C(Cl)(Cl)Cl)cc1 (stereo not drawn)"
endpoint_result = "inactive"

[[record]]
compound = "O=C(O)C(F)(F)C(F)(F)C(F)(F)C(F)(F)C(F)(F)F"
endpoint_result = "inactive"

[[record]]
compound = "CCSC(=O)N(CC)C1CCCCC1"
endpoint_result = "inactive"

[[record]]
compound = "Cc1cccc(C)c1N"
endpoint_result = "inactive"

[[record]]
compound = "CCCN(CCC)N=O"
endpoint_result = "inactive"

[[record]]
compound = "CN(C)CCO"
endpoint_result = "inactive"

[[record]]
compound = "CCCCCCCCCC[N+](C)(C)CCCCCCCCCC"
endpoint_result = "inactive"

[[record]]
compound = "Nc1ccc(-c2ccc(N)cc2)cc1"
endpoint_result = "inactive"


====

# assayed_system: Cytochrome P450 2C19 (Homo sapiens) (UniProt P33261)
# assay_summary: NVS_ADME_hCYP2C19: NovaScreen (NVS) CYP450-related Enzyme Activity (ADME) Assay for human CYP2C19 (AID 2283113)
# Description: NVS_ADME_hCYP2C19 is a biochemical, single-readout assay that uses extracted gene-proteins from insect cells in a cell-free assay. Measurements were taken 1 hour after chemical dosing in a 96-well plate.NVS_ADME_hCYP2C19 is one of one assay component(s) measured or calculated from the NVS_ADME_hCYP2C19 assay. […] This assay endpoint, NVS_ADME_hCYP2C19, was analyzed in the positive analysis fitting direction relative to Acetonitrile as the negative control and baseline of activity. […]
Records with an inconclusive call do not appear. Active and inactive are the calls of the source. Rule for the calls: active = hit-call score of the fitted dose curve at least 0.9, where 1 is the maximum; inconclusive = response in the unintended direction; inactive = score below 0.9.
Outcomes: class 1 (active), class 0 (inactive)

[[record]]
compound = "CO/C=C(/C(=O)OC)c1ccccc1COc1cccc(C(F)(F)F)n1"
answer_label = "class 1"

[[record]]
compound = "ClC1=C(Cl)[C@]2(Cl)[C@@H]3[C@@H]4C[C@@H]([C@H]5O[C@@H]45)[C@@H]3[C@@]1(Cl)C2(Cl)Cl"
answer_label = "class 1"

[[record]]
compound = "CN(C)CCO"
answer_label = "class 0"

[[record]]
compound = "CCNc1nc(NC(C)C)nc(SC)n1"
answer_label = "class 1"

[[record]]
compound = "COc1ccc(O)c(C(C)(C)C)c1"
answer_label = "class 1"

[[record]]
compound = "ClC(Cl)=C(c1ccc(Cl)cc1)c1ccc(Cl)cc1"
answer_label = "class 0"

[[record]]
compound = "CC(C)(O)C(=O)Nc1ccc([N+](=O)[O-])c(C(F)(F)F)c1"
answer_label = "class 1"

[[record]]
compound = "CCC(C)(CC)c1cc(NC(=O)c2c(OC)cccc2OC)on1"
answer_label = "class 1"

[[record]]
compound = "CCC(C)c1cc([N+](=O)[O-])cc([N+](=O)[O-])c1O (stereo unspecified)"
answer_label = "class 1"

[[record]]
compound = "CCCCCCCCCC[N+](C)(C)CCCCCCCCCC"
answer_label = "class 1"

[[record]]
compound = "CC(c1ccc(O)cc1)(c1ccc(O)cc1)c1ccc(O)cc1"
answer_label = "class 1"


====

# assay_summary: Tanguay_ZF_120hpf_NC_legacy: (Legacy) Oregon State University Tanguay Lab 120 Hour Post-fertilization zebrafish Assay for Notochord and Tail Malformation (AID 2283656)
Results filed as inconclusive are left out. Activity calls are given as the source filed them. The calls were made as follows: active = hit-call score of the fitted dose curve at least 0.9, where 1 is the maximum; inconclusive = response in the unintended direction; inactive = score below 0.9.
observed_property: outcome

[[record]]
molecule = "C1CC2OC2CC1C1CO1 (centres undefined)"
endpoint_result = "inactive"

[[record]]
molecule = "CCCCCCCCCC[N+](C)(C)CCCCCCCCCC"
endpoint_result = "inactive"

[[record]]
molecule = "COS(=O)(=O)OC"
endpoint_result = "inactive"

[[record]]
molecule = "CCNc1nc(NC(C)C)nc(SC)n1"
endpoint_result = "inactive"

[[record]]
molecule = "O=C(O)C(F)(F)C(F)(F)C(F)(F)C(F)(F)C(F)(F)F"
endpoint_result = "inactive"

[[record]]
molecule = "Cc1cc(-c2ccc(N)c(C)c2)ccc1N"
endpoint_result = "inactive"

[[record]]
molecule = "Cc1ccc(O)c(C)c1"
endpoint_result = "inactive"

[[record]]
molecule = "Clc1ccc(Cl)cc1"
endpoint_result = "inactive"

[[record]]
molecule = "CCC(C)c1cc([N+](=O)[O-])cc([N+](=O)[O-])c1O (centres undefined)"
endpoint_result = "inactive"

[[record]]
molecule = "c1cc2ccc3cccc4ccc(c1)c2c34"
endpoint_result = "inactive"

[[record]]
molecule = "Cc1ccccc1CO[C@@H]1C[C@@]2(C(C)C)CC[C@]1(C)O2"
endpoint_result = "inactive"

[[record]]
molecule = "ClC(Cl)=C(c1ccc(Cl)cc1)c1ccc(Cl)cc1"
endpoint_result = "inactive"

[[record]]
molecule = "O=C(N[C@H]1CN2CCC1CC2)c1cc2ccoc2cn1"
endpoint_result = "inactive"

[[record]]
molecule = "CN(C)CCO"
endpoint_result = "inactive"


====

# assayed_system: Bile acid receptor (Homo sapiens) (UniProt Q96RI1)
# Sequence (Q96RI1 whole entry, looked up): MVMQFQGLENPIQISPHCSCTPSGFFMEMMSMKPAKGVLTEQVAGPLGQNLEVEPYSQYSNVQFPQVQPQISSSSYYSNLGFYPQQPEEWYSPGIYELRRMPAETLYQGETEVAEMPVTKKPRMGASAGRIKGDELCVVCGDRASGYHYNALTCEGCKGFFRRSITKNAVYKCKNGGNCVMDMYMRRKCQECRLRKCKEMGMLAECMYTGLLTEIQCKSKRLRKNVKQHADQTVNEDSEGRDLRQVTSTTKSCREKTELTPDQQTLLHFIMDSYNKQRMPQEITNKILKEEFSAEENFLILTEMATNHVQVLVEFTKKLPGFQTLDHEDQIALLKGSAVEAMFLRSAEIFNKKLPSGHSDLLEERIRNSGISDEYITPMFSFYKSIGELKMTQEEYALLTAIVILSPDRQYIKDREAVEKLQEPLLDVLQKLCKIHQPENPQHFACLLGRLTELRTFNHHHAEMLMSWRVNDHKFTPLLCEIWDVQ
# assay_summary: NVS_NR_hFXR_Antagonist: NovaScreen (NVS) Nuclear Receptor Binding Assay for human Farnesoid X Receptor Antagonism (FXR) (AID 2283350)
Results filed as inconclusive are left out. The source made the active and inactive calls. How the source made its calls: active means hit-call score of the fitted dose curve at least 0.9, where 1 is the maximum; inconclusive means response in the unintended direction; inactive means score below 0.9.
Possible outcomes: T = active, F = inactive

[[record]]
entry_smiles = "c1cc2ccc3cccc4ccc(c1)c2c34"
answer_label = "F"

[[record]]
entry_smiles = "O=C(O)C(F)(F)C(F)(F)C(F)(F)C(F)(F)C(F)(F)C(F)(F)C(F)(F)C(F)(F)F"
answer_label = "F"

[[record]]
entry_smiles = "C[C@]12CCC(=O)C=C1CC[C@@H]1[C@@H]2CC[C@]2(C)C(=O)CC[C@@H]12"
answer_label = "T"

[[record]]
entry_smiles = "Cc1cc2c3c(c1)C(c1ccccc1)=N[C@@H](NC(=O)c1ccncc1)C(=O)N3CC2"
answer_label = "F"

[[record]]
entry_smiles = "Clc1ccc(C(Cl)(Cl)Cl)cc1"
answer_label = "F"


====

# Read-out: Cytochrome P450 (CYP2B6), CYP2B6 (gene 1555)
# assay_summary: LTEA_HepaRG_CYP2B6: Life Technologies and Expression Analysis (LTEA) Assay for Cytochrome P450 (CYP2B6) using HepaRG (AID 2283481)
# measurement_context: mRNA level, 48 h; actives raise or lower the signal
The source made the active and inactive calls. Rule for the calls: active = hit-call score of the fitted dose curve at least 0.9, where 1 is the maximum; inactive = score below 0.9.
Outcomes: active, inactive

[[record]]
molecule = "O=C(N[C@H]1CN2CCC1CC2)c1cc2ccoc2cn1"
answer_label = "active"

[[record]]
molecule = "Nc1ccc(-c2ccc(N)cc2)cc1"
answer_label = "active"

[[record]]
molecule = "C1CC2OC2CC1C1CO1 (stereo unspecified)"
answer_label = "active"

[[record]]
molecule = "ClC1=C(Cl)[C@]2(Cl)[C@@H]3[C@H]4C[C@H]([C@@H]5O[C@H]45)[C@@H]3[C@@]1(Cl)C2(Cl)Cl"
answer_label = "active"

[[record]]
molecule = "Oc1c(Cl)c(Cl)c(Cl)c(Cl)c1Cl"
answer_label = "active"

[[record]]
molecule = "CCCCCCCCCc1ccc(O)cc1"
answer_label = "inactive"


====

# assay_summary: CEETOX_H295R_MTT_cell_viability: Viability Assessment in the CeeTox HT-H295R MTT Assay (AID 2283718)
Active and inactive are the calls of the source. Rule for the calls: active = hit-call score of the fitted dose curve at least 0.9, where 1 is the maximum; inactive = score below 0.9.
Classes used: True (active), False (inactive)

[[record]]
entry_smiles = "CCOCCOC(C)=O"
answer_label = "False"

[[record]]
entry_smiles = "CCC(=O)O[C@H]1CC[C@H]2[C@@H]3CCC4=CC(=O)CC[C@]4(C)[C@H]3CC[C@]12C"
answer_label = "True"

[[record]]
entry_smiles = "C=CC(N)=O"
answer_label = "False"

[[record]]
entry_smiles = "CCC(C)(CC)c1cc(NC(=O)c2c(OC)cccc2OC)on1"
answer_label = "True"

[[record]]
entry_smiles = "CCCCCCCCOC(=O)c1ccccc1C(=O)OCCCCCCCC"
answer_label = "False"

[[record]]
entry_smiles = "CCNc1nc(NC(C)C)nc(SC)n1"
answer_label = "False"


====

# assayed_system: Cytochrome P450 3A4 (Homo sapiens)
# assay_summary: NVS_ADME_hCYP3A4: NovaScreen (NVS) CYP450-related Enzyme Activity (ADME) Assay for human CYP3A4 (AID 2283110)
Inconclusive results are not listed. Calls of active or inactive are those of the source. Rule for the calls: active = hit-call score of the fitted dose curve at least 0.9, where 1 is the maximum; inconclusive = response in the unintended direction; inactive = score below 0.9.
Outcome codes: true (1) for active, false (0) for inactive

[[record]]
entry_smiles = "Oc1ccc(C(c2ccc(O)cc2)(C(F)(F)F)C(F)(F)F)cc1"
answer_label = "true (1)"

[[record]]
entry_smiles = "Cc1cccc(C)c1N"
answer_label = "false (0)"

[[record]]
entry_smiles = "Cc1cc2c3c(c1)C(c1ccccc1)=N[C@@H](NC(=O)c1ccncc1)C(=O)N3CC2"
answer_label = "false (0)"

[[record]]
entry_smiles = "CCC(C)(c1ccc(O)cc1)c1ccc(O)cc1"
answer_label = "false (0)"

